- Experimental system: human serum albumin (human) (UniProt P02768)
- Sequence (P02768 25-609 limits assumed): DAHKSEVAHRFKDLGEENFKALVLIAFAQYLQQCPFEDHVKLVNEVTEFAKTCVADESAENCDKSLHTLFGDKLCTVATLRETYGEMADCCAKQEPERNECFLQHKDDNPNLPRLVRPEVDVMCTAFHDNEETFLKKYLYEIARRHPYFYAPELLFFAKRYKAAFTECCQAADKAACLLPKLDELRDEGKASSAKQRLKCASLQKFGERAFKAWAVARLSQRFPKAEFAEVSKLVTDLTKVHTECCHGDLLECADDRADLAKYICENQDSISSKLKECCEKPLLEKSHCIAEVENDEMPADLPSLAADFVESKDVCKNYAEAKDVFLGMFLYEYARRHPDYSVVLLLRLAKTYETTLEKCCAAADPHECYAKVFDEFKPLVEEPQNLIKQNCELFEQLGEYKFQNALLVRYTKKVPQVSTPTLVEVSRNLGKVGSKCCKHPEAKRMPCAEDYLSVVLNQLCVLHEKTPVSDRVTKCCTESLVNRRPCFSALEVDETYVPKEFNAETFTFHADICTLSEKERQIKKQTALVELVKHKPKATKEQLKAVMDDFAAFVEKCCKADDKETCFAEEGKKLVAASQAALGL
- Run description: screening ELISA
Measure name: HSA

Example entries begin here.
SEQ ID NO 274 (designed binder) MLPAPKNLVVSRVTEDSVRLSWTAPDAAFDSFAISYEEWWVHGEAIVLTVPGSERSYDLTGLKPGTEYSVVIPGVKGGLYSWTLSAISTT ... 11900
SEQ ID NO 239 (designed binder) MLPAPKNLVVSRVTEDSARLSWTAPDAAFDSFAITYYEGRWRGEAIVLTVPGSERSYDLTGLKPGTEYGVPIRGVKGGTGSLPLSAIFTT ... 5050
SEQ ID NO 195 (designed binder) MLPAPKNLVVSRVTEDSARLSWTAPDAAFDSFPIEYDEIPFWGEAIVLTVPGSERSYDLTGLKPGTEYRVWIHGVKGGNSSWPLSAIFTT ... 90200
SEQ ID NO 182 (designed binder) MLPAPKNLVVSRVTEDSARLSWTAPDAAFDSFFIGYLEPYPPGEAIVLTVPGSERSYDLTGLKPGTEYVVSIQGVKGGTPSQPLSAIFTT ... 2950
SEQ ID NO 98 (designed binder) MLPAPKNLVVSRITEDSARLSWTAPDAAFDSFDIPYGEFDTIGEAIVLTVPGSERSYDLTGLKPGTEYDVYIEGVKGGHLSWPLSAIFTT ... 15500
SEQ ID NO 109 (designed binder) MLPAPKNLVVSRVTEDSARLSWTAPDAAFDSFHIAYEELVTEGEAIYLRVPGSERSYDLTGLKPGTEYLVDIEGVKGGHLSSPLSAIFTT ... 1250

[1] SEQ ID NO 49 (designed binder) MLPAPKNLVVSRVTEDSARLSWTAPDAAFDSFGISYLEWWEDGEAIVLTVPGSERSYDLTGLKPGTEYWVSIAGVKGGKRSYPLSAIFTT
[2] SEQ ID NO 91 (designed binder) MLPAPKNLVVSRVTEDSARLSWTAPDAAFDSFVIEYWERTQPGEAIVLTVPGSERSYDLTGLKPGTEYDVWISGVKGGKWSEPLSAIFTT
Problem: Of 1 versus 2 , which is the one with smaller reported HSA? Answer by stating the label of the chosen item.
Solution: 2
(2: 1800, 1: 11500)
